The reported numbers originate from ChEMBL document CHEMBL4765235.

# Assay method text: Cmax in Sprague-Dawley rat at 15 mg/kg, po administered as single dose measured at 6 hrs
# Format: ADME, organism-based
# Design: route oral, time 6 hrs, dose 15 mg/kg
# Stated conditions: in vivo

Structure string: COc1ccc(C(NC(=O)c2cnc(-c3cccnn3)nc2O)c2ccc(OC)cc2)cc1
Readout unit: µM
Cmax: 30

----------
# Target under test: Cytochrome P450 2D6 (Homo sapiens)
# Sequence (P10635 whole entry): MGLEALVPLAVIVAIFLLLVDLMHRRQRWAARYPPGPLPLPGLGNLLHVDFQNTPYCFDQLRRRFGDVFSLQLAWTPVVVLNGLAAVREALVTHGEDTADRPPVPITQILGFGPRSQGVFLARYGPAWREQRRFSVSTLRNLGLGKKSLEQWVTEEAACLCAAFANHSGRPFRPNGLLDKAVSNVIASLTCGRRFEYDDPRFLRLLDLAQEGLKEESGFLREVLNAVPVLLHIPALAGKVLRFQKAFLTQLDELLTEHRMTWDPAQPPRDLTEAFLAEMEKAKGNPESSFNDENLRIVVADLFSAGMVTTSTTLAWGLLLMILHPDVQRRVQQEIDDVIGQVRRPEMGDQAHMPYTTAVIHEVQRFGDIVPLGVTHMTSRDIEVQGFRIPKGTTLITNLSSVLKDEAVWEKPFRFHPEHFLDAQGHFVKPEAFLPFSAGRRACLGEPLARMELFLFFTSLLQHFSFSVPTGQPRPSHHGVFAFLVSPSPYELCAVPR
pIC50: −log10 of the molar value.

Structure string: COc1ccc(C(NC(=O)c2cnc(-c3cccnn3)nc2O)c2ccc(OC)cc2)cc1
pIC50: < 4.22

----------
# Assay method text: Metabolic stability in rat liver microsomes assessed as metabolic turnover at 10 uM measured after 60 mins in presence of NADPH
# Assay type: ADME, Microsome
# Stated conditions: read-out: Drug metabolism

Structure string: COc1ccc(C(NC(=O)c2cnc(-c3cccnn3)nc2O)c2ccc(OC)cc2)cc1
metabolised at 1 h, 10 µM: < 10%

----------
Parameter pIC50: see the listing below.
# Target under test: Voltage-gated inwardly rectifying potassium channel KCNH2 (Homo sapiens, UniProt Q12809)
# Sequence (Q12809 whole entry): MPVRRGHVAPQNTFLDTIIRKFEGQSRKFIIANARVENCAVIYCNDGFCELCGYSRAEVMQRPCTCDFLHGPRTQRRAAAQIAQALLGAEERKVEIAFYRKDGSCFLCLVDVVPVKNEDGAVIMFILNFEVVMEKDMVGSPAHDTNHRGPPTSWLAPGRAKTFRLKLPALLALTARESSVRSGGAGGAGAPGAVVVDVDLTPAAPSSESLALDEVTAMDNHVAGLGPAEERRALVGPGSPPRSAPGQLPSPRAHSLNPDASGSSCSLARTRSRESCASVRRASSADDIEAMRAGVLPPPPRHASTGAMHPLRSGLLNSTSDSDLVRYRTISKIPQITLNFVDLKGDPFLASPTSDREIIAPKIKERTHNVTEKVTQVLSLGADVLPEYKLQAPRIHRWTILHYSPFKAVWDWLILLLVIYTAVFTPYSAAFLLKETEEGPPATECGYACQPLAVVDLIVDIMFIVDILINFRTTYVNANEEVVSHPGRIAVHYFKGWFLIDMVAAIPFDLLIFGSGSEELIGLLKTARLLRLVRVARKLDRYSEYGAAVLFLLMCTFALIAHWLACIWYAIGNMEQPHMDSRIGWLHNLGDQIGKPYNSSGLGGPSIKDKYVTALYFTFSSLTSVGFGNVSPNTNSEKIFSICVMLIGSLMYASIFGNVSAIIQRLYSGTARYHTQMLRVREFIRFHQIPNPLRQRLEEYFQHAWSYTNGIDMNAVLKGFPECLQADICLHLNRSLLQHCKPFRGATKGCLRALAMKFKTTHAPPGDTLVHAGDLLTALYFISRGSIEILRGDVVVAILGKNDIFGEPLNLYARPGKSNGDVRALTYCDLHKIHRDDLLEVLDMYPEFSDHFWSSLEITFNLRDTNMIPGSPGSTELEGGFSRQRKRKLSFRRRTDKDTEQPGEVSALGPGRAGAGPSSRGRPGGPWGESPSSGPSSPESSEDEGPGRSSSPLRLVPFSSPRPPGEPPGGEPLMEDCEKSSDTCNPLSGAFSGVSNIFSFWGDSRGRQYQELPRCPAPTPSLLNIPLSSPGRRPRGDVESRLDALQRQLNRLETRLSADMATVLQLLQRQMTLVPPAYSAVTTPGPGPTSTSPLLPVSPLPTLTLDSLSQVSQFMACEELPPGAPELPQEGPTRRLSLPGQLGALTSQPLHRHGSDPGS
pIC50: −log10 of the molar value.
Observed property: pIC50

Structure string: O=C(NC(c1ccccc1)c1ccccc1)c1cnc(-c2cccnn2)nc1O
Observed property: pIC50
Value observed: < 4.52
//
Structure string: O=C(NCc1ccc(F)cc1)c1cnc(-c2ccccn2)nc1O
Observed property: pIC50
Value observed: < 4.52
//
Structure string: COc1ccc(C(NC(=O)c2cnc(-c3cccnn3)nc2O)c2ccc(OC)cc2)cc1
Observed property: pIC50
Value observed: < 4.52

----------
# key: entry, value: bioavailability
# Assay method text: Oral bioavailability in dog at 1 mg/kg
# Format: ADME, organism-based, Canis lupus familiaris
# Stated conditions: in vivo
Observed property: bioavailability (%)

Structure string: COc1ccc(C(NC(=O)c2cnc(-c3cccnn3)nc2O)c2ccc(OC)cc2)cc1
Observed property: bioavailability
Readout unit: %
Value observed: 71
//
Structure string: CC(C)(NC(=O)c1cnc(-n2cccn2)nc1O)c1ccccc1
Observed property: bioavailability
Readout unit: %
Value observed: 61

----------
# Assay method text: Cmax in rat at 2 mg/kg, po or 1 mg/kg, iv
# Assay type: ADME, organism-based
# Design: dose 2 mg/kg
# Stated conditions: in vivo

Structure string: CC(C)(NC(=O)c1cnc(-n2cccn2)nc1O)c1ccccc1
Readout unit: µM
Cmax: 49
//
Structure string: COc1ccc(C(NC(=O)c2cnc(-c3cccnn3)nc2O)c2ccc(OC)cc2)cc1
Readout unit: µM
Cmax: 11

----------
# Assay method text: Protein binding in mouse plasma assessed as unbound fraction at 2 mg/kg, po or 1 mg/kg, iv
# Type: ADME, organism-based
# Stated conditions: read-out: PPB

Structure string: CC(C)(NC(=O)c1cnc(-n2cccn2)nc1O)c1ccccc1
fraction unbound: 0.093

----------
# Assay method text: Clearance in rhesus monkey at 1 mg/kg, po or 0.5 mg/kg, iv
# Assay type: ADME, organism-based, Macaca mulatta
# Stated conditions: in vivo

Structure string: CC(C)(NC(=O)c1cnc(-n2cccn2)nc1O)c1ccccc1
Readout unit: mL/day/kg
clearance: 1.44

----------
Below, each entry is listed alongside its reported half-life.
# Assay method text: Half life in dog at 1 mg/kg, po or 0.5 mg/kg, iv
# Format: ADME, organism-based, Canis lupus familiaris
# Stated conditions: in vivo
Observed property: half-life (h)

Structure string: O=C(NCc1ccc(-c2ccccc2)cc1)c1cnc(-n2cccn2)nc1O
Relation sign: =
Value observed: 143
//
Structure string: COc1ccc(C(NC(=O)c2cnc(-c3cccnn3)nc2O)c2ccc(OC)cc2)cc1
Relation sign: =
Value observed: 19
//
Structure string: COc1ccc([C@H](C)NC(=O)c2cnc(-n3cccn3)nc2O)cc1
Relation sign: =
Value observed: 94
//
Structure string: CC(C)(NC(=O)c1cnc(-n2cccn2)nc1O)c1ccccc1
Relation sign: >
Value observed: 100
//
Structure string: C[C@H](NC(=O)c1cnc(-n2cccn2)nc1O)c1ccc(F)cc1
Relation sign: =
Value observed: 60

----------
# Assay method text: Volume of distribution at steady state in mouse at 2 mg/kg, po or 1 mg/kg, iv
# Format: ADME, organism-based
# Stated conditions: in vivo, read-out: Vdss

Structure string: CC(C)(NC(=O)c1cnc(-n2cccn2)nc1O)c1ccccc1
Vd [L/kg]: 0.3

----------
# Assay method text: Volume of distribution at steady state in dog at 1 mg/kg, po or 0.5 mg/kg, iv
# Type: ADME, organism-based, Canis lupus familiaris
# Stated conditions: in vivo, read-out: Vdss
Observed property: Vd (L/kg)

Structure string: COc1ccc(C(NC(=O)c2cnc(-c3cccnn3)nc2O)c2ccc(OC)cc2)cc1
Observed property: Vd
Value observed: 0.12
--
Structure string: CC(C)(NC(=O)c1cnc(-n2cccn2)nc1O)c1ccccc1
Observed property: Vd
Value observed: 0.1

----------
# Target under test: Egl nine homolog 1 (Homo sapiens, UniProt Q9GZT9)
# Sequence (Q9GZT9 whole entry): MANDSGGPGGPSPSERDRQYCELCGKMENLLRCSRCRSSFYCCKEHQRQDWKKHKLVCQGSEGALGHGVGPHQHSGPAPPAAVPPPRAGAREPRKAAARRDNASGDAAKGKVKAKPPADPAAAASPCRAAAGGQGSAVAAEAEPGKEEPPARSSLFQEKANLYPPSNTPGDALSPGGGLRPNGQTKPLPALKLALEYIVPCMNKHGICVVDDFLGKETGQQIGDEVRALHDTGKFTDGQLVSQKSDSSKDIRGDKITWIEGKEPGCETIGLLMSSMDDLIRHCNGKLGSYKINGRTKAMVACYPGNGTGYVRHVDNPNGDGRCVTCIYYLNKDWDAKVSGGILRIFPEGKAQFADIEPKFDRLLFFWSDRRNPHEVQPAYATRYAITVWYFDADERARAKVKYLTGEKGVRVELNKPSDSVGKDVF
# Assay method text: Inhibition of FLAG-tagged full-length HIF-PHD2 (unknown origin) expressed in baculovirus infected Sf9 cells using 2-oxoglutarate and HIF1alpha biotinyl-DLDLEMLAPYIPMDDDFQL as peptide substrates preincubated for 30 mins followed by substrate addition and measured after 2 hrs by LANCE assay
Observed property: IC50

Structure string: CC(C)(NC(=O)c1cnc(-c2ccc(C(F)(F)F)cn2)nc1O)c1ccccc1
Target under test: Egl nine homolog 1 (Homo sapiens, UniProt Q9GZT9)
Observed property: IC50
Value observed: > 2700 nM

----------
# Assay method text: Blood clearance in C57BL/6J mouse at 1 mg/kg, po or 0.5 mg/kg, iv
# Assay type: ADME, organism-based
# Stated conditions: whole blood

Structure string: COc1ccc(C(NC(=O)c2cnc(-c3cccnn3)nc2O)c2ccc(OC)cc2)cc1
clearance / mL/min/kg: 0.13
